concentration at maximum MFI values, listed per item
# target.under.test: T1, human GITR at the cell surface (human, UniProt Q9Y5U5 26-241)
# T1 construct: whole, on cells; The cell type is named in the assay field of each row; also called human GITR+ cells; CHO-K1 human GITR+ cells
# T1 sequence (looked up): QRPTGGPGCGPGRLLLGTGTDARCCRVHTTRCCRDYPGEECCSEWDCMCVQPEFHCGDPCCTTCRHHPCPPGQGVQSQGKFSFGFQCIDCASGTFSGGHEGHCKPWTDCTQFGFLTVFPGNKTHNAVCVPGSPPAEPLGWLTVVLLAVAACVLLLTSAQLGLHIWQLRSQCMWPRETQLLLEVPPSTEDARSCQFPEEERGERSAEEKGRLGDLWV
# assay.notes: flow cytometry, human GITR-transfected murine blastoma cells, 10,000-13.7 ng/ml

Examples with answers:
Input line: What value of concentration at maximum MFI has been reported for the following binder? chimeric anti-GITR IgG1 mVH/mVL (6C8 murine v-domains) (antibody, V domains shown, Full-length human IgG1, kappa; also called GITR-mVH/mVL; chimeric IgG) VH: QVTLKESGPGILKPSQTLSLTCSFSGFSLSTSGMGVGWIRQPSGKGLEWLAHIWWDDDKYYNPSLKSQLTISKDTSRNQVFLKITSVDTADAATYYCARTRRYFPFAYWGQGTLVTVSS VL: DIVMTQSQKFMSTSVGDRVSVTCKASQNVGTNVAWYQQKPGQSPKALIYSASYRYSGVPDRFTGSGSGTDFTLTINNVHSEDLAEYFCQQYNTDPLTFGAGTKLEIK
Output line: ~1110 ng/mL

Input line: What value of concentration at maximum MFI has been reported for the following binder? I-C2 IgG1 (antibody, V domains shown, Human IgG1) VH: EVQLVESGGGLVQPGGSLRLSCAASGFSLSTSGYGVGWVRQAPGKGLEWLAHIWWDDDKYYVDSVKGRFTISRDNAKNSLYLQMNSLRAEDTAVYYCARTRLYFPFAYWGQGTLVTVSS VL: EIVLTQSPATLSLSPGERATLSCRASQNVGSNLAWYQQKPGQAPRLLIYSASNRYSGIPARFSGSGSGTDFTLTISSLEPEDFAVYYCQQYSTDPLTFGGGTKVEIK
Output line: ~1110 ng/mL

Now examine the next entry.
Input line: What value of concentration at maximum MFI has been reported for the following binder? G-G10 IgG1 (antibody, V domains shown, Human IgG1) VH: EVQLVESGGGLVQPGGSLRLSCAASGFSLSTFGYGVGWVRQAPGKGLEWLAHIWWDDDKYYVDSVKGRFTISRDNAKNSLYLQMNSLRAEDTAVYYCARTRQYFPFAYWGQGTLVTVSS VL: EIVLTQSPATLSLSPGERATLSCRASQSVGTNLAWYQQKPGQAPRLLIYYASYRYTGIPARFSGSGSGTDFTLTISSLEPEDFAVYYCQQYSNDPLTFGGGTKVEIK
Output line: ~1110 ng/mL

Where these numbers come from: patent US20190375846A1
